Tested on: cat flea (Ctenocephalides felis)
Assay: Ctenocephalides felis adulticide assay: dose response (LC50)
Assay type: in vivo
Settings: Laboratory 1 C data
readout kind: C. felis LC50 (μg/cm^2)
Quick note: give the figure in μg/cm^2, leave out the unit.

smiles string | unit info | C. felis LC50
COCCO/N=C(\C)c1cc(Cl)ccc1NS(=O)(=O)C(F)(F)F | μg/cm^2 | 0.2

Enquiry: May I ask what C. felis LC50 has been recorded for "C/C(=N\Oc1ccc(F)cc1)c1cc(Cl)ccc1NS(=O)(=O)C(F)(F)F" ?
Return: 0.05

Enquiry: May I ask what C. felis LC50 has been recorded for "CC/C(=N\OC1CCCC1)c1cc(Cl)ccc1NS(=O)(=O)C(F)(F)F" ?
Return: 0.2

Enquiry: May I ask what C. felis LC50 has been recorded for "CC/C(=N\OC(CC)CC)c1cc(Cl)ccc1NS(=O)(=O)C(F)(F)F" ?
Return: 0.4

Entry source: patent US7312248B2
